- System: CP256
- procedure_details: qHTS profiling for inhibitors of Plasmodium falciparum proliferation (AID 504749); note: nearly all actives have a fitted effect of over 60% in size
- particulars: P. falciparum in erythrocytes, SYBR Green DNA, 72 h; series mostly up to 12.8 µM
Inconclusive results are not listed. The source made the active and inactive calls. Calls come from the whole dose curve; as a rule, active = well fitted inhibition curve with a large enough effect; inconclusive = small, poorly fitted or top-dose-only effect; inactive = flat fitted curve, though single readings scatter.
Pick from True (active), False (inactive) when you respond.

# compound, target_desc, cat
data = [
    ("O=C(Nc1ccccc1)OC[C@H](CN1CCCCC1)OC(=O)Nc1ccccc1", "CP256", "False"),
    ("O=C(N/N=C\\c1ccc([N+](=O)[O-])o1)c1ccc(O)cc1", "CP256", "True"),
    ("Cc1ccsc1/C=C\\C1=NCCCN1C", "CP256", "False"),
    ("Cc1onc(-c2ccccc2Cl)c1C(=O)N[C@H]1C(=O)N2[C@H]1SC(C)(C)[C@H]2C(=O)O", "CP256", "False"),
    ("COc1ccc(-c2cc(=O)c3c(O)cc(O[C@H]4OC(COC5OC(C)C(O)C(O)[C@H]5O)C(O)C(O)C4O)cc3o2)cc1O (stereo partly drawn)", "CP256", "False"),
]

Lookup: For `CCCC[C@H](CC)CN1CN(C[C@@H](CC)CCCC)CC(C)(N)C1` , which call appears in the assay record?
Found: False

Lookup: For `NC(=O)c1ccc[n+]([C@@H]2O[C@H](COP(=O)([O-])OP(=O)(O)OC[C@H]3O[C@@H](n4cnc5c(N)ncnc54)[C@@H](O)[C@@H]3O)[C@@H](O)[C@@H]2O)c1` , which call appears in the assay record?
Found: False

Lookup: Assay result, entry COC1C=CO[C@@]2(C)Oc3c(C)c(O)c4c(O)c(c(C=NN5CCN(C)CC5)c(O)c4c3C2=O)NC(=O)/C(C)=C\C=CC(C)C(O)[C@@H](C)C(O)C(C)[C@H](OC(C)=O)C1C (stereo partly drawn) — outcome?
Found: True

----------
- System: N140
- procedure_details: qHTS profiling for inhibitors of Plasmodium falciparum proliferation (AID 504749); note: nearly all actives have a fitted effect of over 60% in size
- particulars: P. falciparum in erythrocytes, SYBR Green DNA, 72 h; series mostly up to 12.8 µM
Records with an inconclusive call do not appear. The source made the active and inactive calls. Calls follow the shape of the dose curve; as a rule, active = well fitted inhibition curve with a large enough effect; inconclusive = small, poorly fitted or top-dose-only effect; inactive = flat fitted curve, though single readings scatter.
Bench note: report the call from T for active, F for inactive

Previously resolved entries follow.
# compound, cat
rows = [
    ("COC(=O)[C@@H]1[C@@H]2C[C@H]3c4[nH]c5cc(OC)ccc5c4CCN3C[C@@H]2C[C@H](OC(=O)/C=C\\c2cc(OC)c(OC)c(OC)c2)[C@H]1OC", "T"),
    ("CCN(CC)CCOC(=O)[C@@H](Cc1cccc2ccccc12)C[C@@H]1CCCO1", "F"),
    ("CCC(CCC(C)C1CCC2C3CC=C4CC(O)CC[C@@]4(C)C3CC[C@@]12C)C(C)C (some centres undefined)", "F"),
]

Kindly review the next compound as well.
Lookup: Given `Cn1nnnc1SCC1=C(C(=O)O)N2C(=O)[C@@H](NC(=O)[C@@H](O)c3ccccc3)[C@@H]2SC1` , state the outcome it received in this test.
Found: F

----------
- target_desc: Luciferin 4-monooxygenase (Photinus pyralis)
- procedure_details: Biochemical firefly luciferase enzyme assay for NPC (AID 624030);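 note: purified P. pyralis luciferase at 10 nM with luciferin and ATP substrate; nearly all actives have a fitted effect of over 70% in size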
- particulars: purified P. pyralis luciferase, luminescence, 5 min; series mostly up to 24.9 µM
Results filed as inconclusive are left out. Calls of active or inactive are those of the source. Calls come from the whole dose curve; as a rule, active = well fitted inhibition curve with a large enough effect; inconclusive = small, poorly fitted or top-dose-only effect; inactive = flat fitted curve, though single readings scatter.
A correct response names exactly one class from y = active, n = inactive

# molecule, cat
measured = [
    ("CN(C)CCn1nnnc1SCC1=C(C(=O)O)N2C(=O)[C@@H](NC(=O)Cc3csc(N)n3)[C@@H]2SC1", "n"),
    ("NC[C@@H]1O[C@H](O[C@@H]2[C@H](O[C@@H]3O[C@H](CO)[C@@H](O)[C@@H]3O)[C@@H](O)[C@@H](N)C[C@H]2N)[C@@H](N)[C@H](O)[C@@H]1O", "n"),
    ("CC1(C)SC2C(N3C(=O)C(c4ccccc4)NC3(C)C)C(=O)N2C1C(=O)O (configuration not stated)", "n"),
    ("C=C1c2c(Cl)ccc(O)c2C(O)=C2C(=O)[C@@]3(O)C(O)=C(C(N)=O)C(=O)[C@@H](N(C)C)[C@@H]3[C@@H](O)[C@H]12", "n"),
]

Lookup: Dear colleague, could you share the recorded outcome for `CC(=O)OCC(=O)[C@@]1(O)[C@H](C)C[C@@H]2[C@H]3CCC4=CC(=O)C=C[C@]4(C)[C@]3(F)[C@@H](O)C[C@@]21C` when you have a moment?
Found: n

Lookup: Each molecule tested received a call. Report the one for `NC[C@@H]1O[C@H](O[C@H]2[C@H](O)[C@H](O[C@@H]3O[C@H](CO)[C@@H](O)[C@H](N)[C@@H]3O)[C@@H](N)C[C@H]2N)[C@@H](O)[C@H](O)[C@@H]1O` .
Found: n

Lookup: Could you please tell me the result logged for `Cn1nnnc1SCC1=C(C(=O)O)N2C(=O)[C@@H](NC(=O)[C@@H](O)c3ccccc3)[C@@H]2SC1` in this assay?
Found: n

Lookup: Record request — test call for `CN1CCO[C@H](c2ccccc2)c2ccccc2C1`
Found: n

Lookup: Please indicate how the test categorized `CCCCCCCCCc1ccc(OCCOCCOCCOCCOCCOCCOCCOCCOCCO)cc1` .
Found: n

Lookup: Each molecule tested received a call. Report the one for CNC1C(OC2C(O[C@@H]3C(O)C(O)[C@@H](N=C(N)N)C(O)C3N=C(N)N)OC(C)[C@@]2(O)CO)OC(CO)C(O)C1O (some centres not stated) .
Found: n

Lookup: Any idea what this test logged for NCC1O[C@@H](O[C@@H]2C(O)[C@H](O[C@H]3OC(CO)C(O)C(N)C3O)[C@@H](N)C[C@H]2N)C(N)C(O)C1O (some centres not stated) ?
Found: n

----------
- target_desc: Cytochrome P450 3A4 (Homo sapiens)
- procedure_details: qHTS Assay for Inhibitors and Substrates of Cytochrome P450 3A4 (AID 884); note: nearly all actives have a fitted effect of over 50% in size
- particulars: recombinant CYP3A4, Luciferin-PPXE luminescence; series mostly up to 57.1 µM
- Method: NIH Molecular Libraries Screening Centers Network [MLSCN] NIH Chemical Genomics Center [NCGC] The P450 gene superfamily is involved in the metabolism and clearance of xenobiotics. […] The luciferin is then measured by luminescence after the addition of a luciferase detection reagent. […] Inhibitors and some substrates limit the production of luciferin, and decrease measured luminescence. […]
Results filed as inconclusive are left out. The source made the active and inactive calls. Calls follow the shape of the dose curve; as a rule, active = well fitted inhibition curve with a large enough effect; inconclusive = small, poorly fitted or top-dose-only effect; inactive = no such curve, though single readings can be large or run the other way.
Your response should consist of one outcome taken from active, inactive

Field: example entries. Status: answers known.
# compound, cat
measured = [
    ("N[C@H](CO)Cc1cnc[nH]1", "inactive"),
    ("C[C@@H]1/C(=N/O)CC2C[C@@H]1C2(C)C", "inactive"),
]

Lookup: For CCCCCC1C(=O)CCC1CC(=O)O (stereo unspecified) , what call appears in the results of this test?
Found: inactive

Lookup: What did the test return for OCC1O[C@H](OC2C(CO)O[C@@](O)(CO)C2O)C(O)C(O)C1O (stereo partly specified) ?
Found: inactive

----------
- Tested on: 7G8
- procedure_details: qHTS profiling for inhibitors of Plasmodium falciparum proliferation (AID 504749); note: nearly all actives have a fitted effect of over 60% in size
- particulars: P. falciparum in erythrocytes, SYBR Green DNA, 72 h; series mostly up to 12.8 µM
Inconclusive results are not listed. Calls of active or inactive are those of the source. Calls come from the whole dose curve; as a rule, active = well fitted inhibition curve with a large enough effect; inconclusive = small, poorly fitted or top-dose-only effect; inactive = flat fitted curve, though single readings scatter.
Response enum: active, inactive

# compound, cat
measured = [
    ("CO[C@]1(NC(=O)[C@H](C(=O)O)c2ccc(O)cc2)C(=O)N2C(C(=O)O)=C(CSc3nnnn3C)CO[C@H]21", "inactive"),
    ("CCC[C@@H]1O[C@@H]2C[C@@H]3[C@H]4CCC5=CC(=O)C=C[C@@]5(C)[C@H]4[C@H](O)C[C@@]3(C)[C@@]2(C(=O)CO)O1", "active"),
    ("Cc1ccc(S(=O)(=O)NC(=O)NN2C[C@H]3CCC[C@@H]3C2)cc1", "inactive"),
    ("CS(=O)(=O)c1ccc([C@H](O)[C@H](CO)NC(=O)C(Cl)Cl)cc1", "inactive"),
    ("C1CCN2C[C@@H]3C[C@@H](CN4CCCC[C@H]34)[C@H]2C1", "inactive"),
    ("CCC1OC(=O)C(C)[C@@H](O[C@H]2C[C@@](C)(OC)C(O)C(C)O2)C(C)[C@@H](O[C@@H]2OC(C)CC(N(C)C)C2O)[C@@](C)(O)CC(C)C(=O)[C@@H](C)C(O)[C@]1(C)O (stereo partly drawn)", "inactive"),
    ("CN1CCO[C@H](c2ccccc2)c2ccccc2C1", "inactive"),
]

Moving on to another compound below.
Lookup: What outcome does the record of this test show for `C=CC1=C(C(=O)O)N2C(=O)[C@@H](NC(=O)/C(=N\OCC(=O)O)c3csc(N)n3)[C@@H]2SC1` ?
Found: inactive
